- target or system: Cholinesterase (Homo sapiens, UniProt P06276)
- Sequence (P06276 whole entry): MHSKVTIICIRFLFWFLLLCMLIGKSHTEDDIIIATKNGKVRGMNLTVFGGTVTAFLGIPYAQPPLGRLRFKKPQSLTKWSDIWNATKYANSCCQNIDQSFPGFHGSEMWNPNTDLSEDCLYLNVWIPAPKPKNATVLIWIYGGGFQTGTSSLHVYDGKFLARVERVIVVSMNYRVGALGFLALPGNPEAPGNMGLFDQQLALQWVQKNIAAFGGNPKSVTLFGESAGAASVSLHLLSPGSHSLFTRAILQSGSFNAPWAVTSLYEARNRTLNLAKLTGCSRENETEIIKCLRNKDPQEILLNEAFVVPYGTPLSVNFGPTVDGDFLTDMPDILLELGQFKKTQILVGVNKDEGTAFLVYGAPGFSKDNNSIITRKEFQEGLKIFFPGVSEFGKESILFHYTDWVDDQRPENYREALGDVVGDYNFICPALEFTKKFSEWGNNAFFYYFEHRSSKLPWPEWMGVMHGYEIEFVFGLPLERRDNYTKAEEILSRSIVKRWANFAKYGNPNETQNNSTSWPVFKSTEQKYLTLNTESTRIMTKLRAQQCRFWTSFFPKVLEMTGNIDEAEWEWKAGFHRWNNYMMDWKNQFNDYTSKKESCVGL
- test protocol: Inhibition of BuChE (unknown origin) at 10 uM by spectrophotometric analysis based Ellman's assay
Would you kindly list inhibition for each of these molecules?
Give bare numbers, in %.

As a guide, the following entries are already answered.
INSERT INTO results (smiles_text, recorded_measurement) VALUES
  ('c1ccc(-c2nccc3c2[nH]c2ccccc23)cc1', 46),
  ('Cc1ccccc1-c1nccc2c1[nH]c1ccccc12', 7),
  ('c1ccc2c(-c3nccc4c3[nH]c3ccccc34)cccc2c1', 95),
  ('COc1ccc2[nH]c3c(-c4ccc(C)cc4)nccc3c2c1', 32),
  ('COc1ccc2[nH]c3c(-c4ccccc4)nccc3c2c1', 64);

Shifting focus to the molecule that follows.
Ask: Tell me reported inhibition for O=C(c1ccc(C(F)(F)F)cc1)c1nccc2c1[nH]c1ccccc12 , tested with Cholinesterase (Homo sapiens, UniProt P06276).
Reply: 69
